The measurements presented in this section are drawn from paper PMC4455059.

test system: chymotrypsin; assay: Proteolytic degradation assay (chymotrypsin-based protocol); format: in vitro ADME; settings: chymotrypsin-based protocol (protocol of ref 51); HPLC-MS read-out; Fig. 4b; read-out: t1/2, proteolytic degradation
Non-standard residues stand in square brackets, D forms with d. Residues, ends and D or L forms follow the SMILES beside them. Phe(3-I) = N[C@@H](Cc1cccc(I)c1)C(=O)O
Endpoint name: half-life (min)

(I) CC(=O)N[C@@H](Cc1cccc(I)c1)C(=O)N[C@@H](CCCNC(=N)N)C(=O)NCC(=O)N[C@@H](CC(=O)O)C(=O)N[C@@H](Cc1c[nH]c2ccccc12)C(N)=O [1h, Ac-m-I-Phe-Arg-Gly-Asp-Trp-NH2] (Ac-[Phe(3-I)]RGDW-NH2)
(II) CC(=O)N[C@@H](Cc1cccc(I)c1)C(=O)N[C@@H](CC(N)=O)C(=O)NCC(=O)N[C@@H](CCCNC(=N)N)C(=O)N[C@@H](Cc1c[nH]c2ccccc12)C(N)=O [1g, Ac-m-I-Phe-Asn-Gly-Arg-Trp-NH2] (Ac-[Phe(3-I)]NGRW-NH2)
Pick one, I or II : lowest reported half-life. Write down the label of the entry you select. II
(II: 19.8 min, I: 52.5 min)
